experimental-system: CaSla1-D1-D2
protocol-details: SPOT peptide array binding signal intensity (averaged, normalized) (arbitrary units (background-subtracted, floor 0; scale differs between SH3 domains)); higher = stronger binding of the SH3 domain to the peptide
metric: SPOT peptide array binding signal intensity

[
  {
    "binder": "IFLRISINFPLNYPN",
    "operator": "=",
    "measurement": 602
  },
  {
    "binder": "VTHRLRISIPGITGR",
    "operator": "=",
    "measurement": 16
  },
  {
    "binder": "QGYPRQPQRPQRYHP",
    "operator": "≤",
    "measurement": 0
  },
  {
    "binder": "ILARAILTIPRVLDK",
    "operator": "=",
    "measurement": 15
  },
  {
    "binder": "VPVAPPPPPASLGQS",
    "operator": "≤",
    "measurement": 0
  },
  {
    "binder": "STKKPRPPVKSKPKH",
    "operator": "=",
    "measurement": 318
  },
  {
    "binder": "LRWRHKFFLPAIAAI",
    "operator": "≤",
    "measurement": 0
  },
  {
    "binder": "NTMKKRPAPPSLPSL",
    "operator": "=",
    "measurement": 648
  },
  {
    "binder": "ISRRRLPVIMHRLKM",
    "operator": "=",
    "measurement": 386
  },
  {
    "binder": "VRVKKRPLIRPLNSS",
    "operator": "=",
    "measurement": 534
  },
  {
    "binder": "DLFKPLPEPPTELGR",
    "operator": "≤",
    "measurement": 0
  },
  {
    "binder": "FTLPPPPPPPGLDEL",
    "operator": "=",
    "measurement": 7
  },
  {
    "binder": "GERSRPLVISILSSA",
    "operator": "=",
    "measurement": 11
  },
  {
    "binder": "VKPRQLFPIPLNKVD",
    "operator": "≤",
    "measurement": 0
  },
  {
    "binder": "DKSRPPRPPPKPLHL",
    "operator": "=",
    "measurement": 458
  }
]
